system: CCRIS mutagenicity, Ames/micronucleus/aberration tests; experiment: CCRIS mutagenicity studies; details: Test System: AMES SALMONELLA TYPHIMURIUM; Strain/Indicator: TA100; Metabolic Activation: NONE; Method: STANDARD PLATE
Active and inactive are the calls of the source. No rule for the calls is given here.
measurement_kind: mutagenic call

[[record]]
compound = "CCOC(=O)CC(SP(=O)(OC)OC)C(=O)OCC (stereo not drawn)"
observed_measurement = "active; positive"

[[record]]
compound = "CCN(CC)C(=S)S[C@@H]1O[C@H](CO)[C@@H](O)[C@H](O)[C@H]1O"
observed_measurement = "inactive; negative"

[[record]]
compound = "O=[N+]([O-])c1ccc2c(c1)oc1ccccc12"
observed_measurement = "active; positive"

[[record]]
compound = "Oc1cccc(Cl)c1"
observed_measurement = "active; positive"

[[record]]
compound = "Oc1ccc(O)c2c(O)c3ccccc3c(O)c12"
observed_measurement = "inactive; negative"


Now consider the entry below.
INPUT: # get_value(readout='mutagenic call', item= `CC(=O)C=O` )
OUTPUT: active; positive

* * *

test system: CCRIS mutagenicity, Ames/micronucleus/aberration tests; test: CCRIS mutagenicity studies; details: Test System: Ames Salmonella typhimurium; Strain/Indicator: TA102; Metabolic Activation: Rat, Liver, S9, Aroclor 1254; Method: Preincubation
Active and inactive are the calls of the source. No rule for the calls is given here.
# valid calls are class 1 = active, class 0 = inactive; nothing else

[[record]]
smiles_repr = "CCn1cc(C(=O)O)c(=O)c2cc(F)c(N3CCNCC3)cc21"
class = "class 1"


INPUT: Assay outcome for `Nc1ccc(S(=O)(=O)O)cc1` : what was it?
OUTPUT: class 0

INPUT: Which outcome was assigned to `O=c1c(O)c(-c2ccc(O)c(O)c2)oc2cc(O)cc(O)c12` in this test?
OUTPUT: class 1

INPUT: Call for entry `Nc1ccc(O)c2c1C(O)=CC(=O)C2=O` :
OUTPUT: class 1

INPUT: Could you check what this test reported for `O=C(O)CN(CC(=O)O)CC(=O)O` ?
OUTPUT: class 0

* * *

tested on: CCRIS mutagenicity, Ames/micronucleus/aberration tests; assay: CCRIS mutagenicity studies; conditions: Test System: AMES SALMONELLA TYPHIMURIUM; Strain/Indicator: TA1537; Metabolic Activation: NONE; Method: GAS EXPOSURE
Active and inactive are the calls of the source. How the calls were made is not given here.
measurement_kind: mutagenic call

[[record]]
smiles_repr = "C1COCCO1"
observed_measurement = "inactive; negative"

[[record]]
smiles_repr = "CBr"
observed_measurement = "inactive; negative"

[[record]]
smiles_repr = "CC=O"
observed_measurement = "inactive; negative"

[[record]]
smiles_repr = "FC(F)(Cl)Cl"
observed_measurement = "inactive; negative"


* * *

tested on: CCRIS mutagenicity, Ames/micronucleus/aberration tests; assay: CCRIS mutagenicity studies; conditions: Test System: AMES SALMONELLA TYPHIMURIUM; Strain/Indicator: TA98; Metabolic Activation: RAT, LIVER, S-9, AROCLOR 1254; Method: STANDARD PLATE
Calls of active or inactive are those of the source. No rule for the calls is given here.
Lab note: assign the record to one of 1 (yes) = active, 0 (no) = inactive

Please review the following examples before continuing.
[[record]]
compound = "OC[C@H]1O[C@@H](n2cnc3c(NC[C@H](O)COc4cccc5ccccc45)ncnc32)[C@H](O)[C@@H]1O"
class = "0 (no)"

[[record]]
compound = "CN(CCO)C(=O)Nc1ccc(Cl)c(Cl)c1"
class = "0 (no)"

[[record]]
compound = "N#CCCN"
class = "0 (no)"

[[record]]
compound = "C=C(C)C(=O)OC(C)(C)C"
class = "0 (no)"

[[record]]
compound = "CC(=O)n1ccnc1"
class = "0 (no)"

[[record]]
compound = "C=C(C)C(=O)OCCO"
class = "0 (no)"

[[record]]
compound = "Cc1nc2c(c3[nH]c4ccccc4c13)C(=O)C(N1CC1)=CC2=O"
class = "1 (yes)"

[[record]]
compound = "COc1cc2c(c3oc(=O)c4c(c13)CCC4=O)[C@@H]1C=CO[C@@H]1O2"
class = "1 (yes)"


Field: next compound
INPUT: Hi, do you know how `C[C@]12C=CC3=C4CCC(=O)C=C4CC[C@H]3[C@@H]1CC[C@@H]2O` came out in this test?
OUTPUT: 0 (no)

* * *

system: CCRIS mutagenicity, Ames/micronucleus/aberration tests; experiment: CCRIS mutagenicity studies; conditions: Test System: Ames Salmonella typhimurium; Strain/Indicator: YG7108pin3ERb5; Metabolic Activation: None; Method: Standard plate
The source made the active and inactive calls. No rule for the calls is given here.
measurement_kind: mutagenic call

[[record]]
smiles_repr = "Nc1ccc2cc3ccccc3cc2c1"
measurement_kind = "mutagenic call"
observed_measurement = "active; positive"

[[record]]
smiles_repr = "C=CC(=O)OCC"
measurement_kind = "mutagenic call"
observed_measurement = "inactive; negative"

[[record]]
smiles_repr = "C=CCCl"
measurement_kind = "mutagenic call"
observed_measurement = "active; positive"

[[record]]
smiles_repr = "C=COC(C)=O"
measurement_kind = "mutagenic call"
observed_measurement = "inactive; negative"


* * *

tested on: CCRIS mutagenicity, Ames/micronucleus/aberration tests; experiment: CCRIS mutagenicity studies; details: End Point: IN VITRO MICRONUCLEUS; Test System: HUMAN PERIPHERAL LYMPHOCYTES; Metabolic Activation: NONE
Activity calls are given as the source filed them. The rule behind the calls is not given here.
measurement_kind: mutagenic call

[[record]]
molecule = "COC(=O)Nc1nc2ccccc2[nH]1"
tgt = "CCRIS mutagenicity, Ames/micronucleus/aberration tests"
measurement_kind = "mutagenic call"
observed_measurement = "active; positive"

[[record]]
molecule = "CCC1CO1 (centres undefined)"
tgt = "CCRIS mutagenicity, Ames/micronucleus/aberration tests"
measurement_kind = "mutagenic call"
observed_measurement = "active; positive"

[[record]]
molecule = "CC/C(=C(/CC)c1ccc(O)cc1)c1ccc(O)cc1"
tgt = "CCRIS mutagenicity, Ames/micronucleus/aberration tests"
measurement_kind = "mutagenic call"
observed_measurement = "active; positive"


* * *

test system: CCRIS mutagenicity, Ames/micronucleus/aberration tests; assay: CCRIS mutagenicity studies; details: Test System: AMES SALMONELLA TYPHIMURIUM; Strain/Indicator: TA1538; Metabolic Activation: RAT, LIVER, S-9, AROCLOR 1254; Method: STANDARD PLATE
Active and inactive are the calls of the source. The rule behind the calls is not given here.
// allowed return values: active, inactive

Observe how each entry below is paired with its result.
[[record]]
compound = "O=C(O)CCCC[C@@H]1SC[C@@H]2NC(=O)N[C@@H]21"
class = "inactive"

[[record]]
compound = "O=C(O)c1nn(Cc2ccc(Cl)cc2Cl)c2ccccc12"
class = "inactive"

[[record]]
compound = "CC(=O)CC(=O)CCC(=O)O"
class = "inactive"

[[record]]
compound = "O=C(CCl)NCO"
class = "inactive"

[[record]]
compound = "C[C@@H]1CC[C@@]2(OC1)O[C@H]1C[C@H]3[C@@H]4CC=C5C[C@@H](O)CC[C@]5(C)[C@H]4CC[C@]3(C)[C@H]1[C@@H]2C"
class = "inactive"

[[record]]
compound = "CC1(C)[C@@H](O[C@H]2O[C@H](C(=O)O)[C@@H](O)[C@H](O)[C@H]2O[C@@H]2O[C@H](C(=O)O)[C@@H](O)[C@H](O)[C@H]2O)CC[C@]2(C)[C@H]3C(=O)C=C4[C@@H]5C[C@@](C)(C(=O)O)CC[C@]5(C)CC[C@@]4(C)[C@]3(C)CC[C@@H]12"
class = "inactive"

[[record]]
compound = "COC/C(=C/c1ccccc1)OC"
class = "inactive"

[[record]]
compound = "C=C1CC[C@H]2C[C@@H]1C2(C)C"
class = "inactive"

[[record]]
compound = "C=C(C)C(=O)OCCCCCCOC(=O)C(=C)C"
class = "inactive"

[[record]]
compound = "O=C(O)CN(CC(=O)O)CC(=O)O"
class = "inactive"


INPUT: // param item: `C[C@]12C=CC3=C4CCC(=O)C=C4CC[C@H]3[C@@H]1CC[C@@H]2O` ; yields the recorded call
OUTPUT: inactive

INPUT: Which result was noted for this compound in the test: `CC(=O)Oc1ccccc1C(=O)O`
OUTPUT: inactive

INPUT: Could you kindly confirm the outcome this assay logged for `C=CC(=O)OCCCCC` ?
OUTPUT: inactive

* * *

tested on: CCRIS mutagenicity, Ames/micronucleus/aberration tests; assay: CCRIS mutagenicity studies; conditions: Test System: AMES SALMONELLA TYPHIMURIUM; Strain/Indicator: TA1535; Metabolic Activation: NONE; Method: STANDARD PLATE
The source made the active and inactive calls. How the calls were made is not given here.
measurement_kind: mutagenic call

Solved cases below.
[[record]]
smiles_repr = "O=c1c(O)c(O)c1=O"
observed_measurement = "inactive; negative"

[[record]]
smiles_repr = "N=C1C=CC(=C(c2ccc(N)cc2)c2ccc(N)cc2)C=C1"
observed_measurement = "inactive; negative"

[[record]]
smiles_repr = "CCOP(=S)(OCC)Oc1cnc2ccccc2n1"
observed_measurement = "inactive; negative"

[[record]]
smiles_repr = "[N-]=[N+]=CC(=O)NCC(N)=O"
observed_measurement = "active; positive"


INPUT: If you can, please state the reported mutagenic call value of `C/C=C/c1cc(OC)c(OC)cc1OC` .
OUTPUT: active; positive

INPUT: Looking for the measured mutagenic call of `O=C1CCO1` , can you help?
OUTPUT: active; positive
